procedure_text: viability gain of MRP-1-high H69AR cells under doxorubicin, pilot screen, MRP-1 activator project, CellTiter-Glo, duplicate (AID 807);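 further: compound pretreatment 18-22 h then 72 h combined with doxorubicin; 0% = doxorubicin alone and 100% = vehicle without doxorubicin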
measurement_conditions: H69AR viability with doxorubicin, CellTiter-Glo luminescence; at 10 µM; hits give high values
Recorded viability increase by entry
property: viability increase (%)

molecule="CCCCSC1=C(C#N)C(c2ccccc2C)CC(=O)N1 (configuration not stated)" test_result=-2.96
molecule=C=CCn1c(=NC(=O)C2CC2)sc2cc(NC(C)=O)ccc21 test_result=-4.77
molecule=Cc1c(C(=O)N2CCCc3ccccc32)sc2nc(-c3ccccc3)cn12 test_result=-2.82
molecule=O=C(O)c1n[nH]c2ccccc12 test_result=-2.36
molecule=CCOc1cc(CN2CCSCC2)ccc1O test_result=0.51
molecule="O=C(NCC(c1cccnc1)N1CCN(c2ccccc2F)CC1)c1ccccc1 (configuration not stated)" test_result=-4.21
molecule=COc1ccccc1N1CCN(C(=O)CCCCn2c(=O)[nH]c3ccsc3c2=O)CC1 test_result=-2.84
molecule=Cc1cc(C)n(Cc2ccccc2F)c(=O)c1C#N test_result=-1.4
molecule=CCCOc1cccc(C(=O)Nc2cccc(NC(=O)c3ccco3)c2)c1 test_result=-3.58
molecule=C=CCSc1nnc2c(n1)[nH]c1c(C)cccc12 test_result=-5.97
molecule=CCOC(=O)c1sc(NC(=O)C2CC2)cc1C test_result=0.54
molecule=Cc1c(C(=O)NCCCN2CCOCC2)sc2nc(-c3ccccc3)cn12 test_result=-1.59

###

Recorded growth inhibition by entry
procedure_text: OD615 S. cerevisiae growth inhibition, permissive medium, pilot counter-assay, permissive growth control for S. cerevisiae lifespan shortening project (AID 705)
measurement_conditions: OD615, 24 h, at 10 µM, hits give high values
property: growth inhibition (%)

compound="Cc1ccc(C2=CC(c3ccc(N(C)C)cc3)n3nnnc3N2)cc1 (stereo not drawn)" property="growth inhibition" test_result=-10.6
compound=COc1c(C)cccc1C(=O)Nc1cc(-c2nn3c(C)nnc3s2)ccc1C property="growth inhibition" test_result=13.5
compound=Nc1cc(C(=O)c2cccs2)ccc1Cl property="growth inhibition" test_result=-9.76
compound="COc1cccc(N2CCN(C(=O)C3CCCN(S(=O)(=O)c4cnc[nH]4)C3)CC2)c1 (stereo not drawn)" property="growth inhibition" test_result=11.1
compound=CCCC(=O)NCCCCNC(=O)CCC property="growth inhibition" test_result=2.78
compound=COc1ccc(-c2ccc(=O)n(CC(=O)N3CCN(c4ccccc4OC)CC3)n2)cc1 property="growth inhibition" test_result=-4.48
compound="CC1CN(S(=O)(=O)c2ccc(C(=O)Nc3sc4c(c3C(N)=O)CCN(C)C4)cc2)CC(C)O1 (stereo not drawn)" property="growth inhibition" test_result=-6.76
compound="CCN(CC)CC(O)COc1ccccc1C(=O)CCc1ccccc1 (stereo not drawn)" property="growth inhibition" test_result=-17.4
compound=Cc1n[nH]c(C)c1S(=O)(=O)N(CC(=O)Nc1ccc2c(c1)OCCO2)c1ccc(C(C)C)cc1 property="growth inhibition" test_result=2.8
compound=COc1ccc(-n2c(=O)c3ccccc3n(CC(=O)NC3CCCC3)c2=O)c(OC)c1 property="growth inhibition" test_result=-4.38
compound=CNc1oc(C)nc1S(=O)(=O)c1ccccc1 property="growth inhibition" test_result=-13.1
compound=CCOC(=O)c1ccc(Nc2ccc(-c3ccc(OC)c(OC)c3)nn2)cc1 property="growth inhibition" test_result=-6.25
compound=COc1ccc(-c2nnc(SCC(=O)NC3CCCCC3)o2)cc1OC property="growth inhibition" test_result=-3.22
compound=COc1ccccc1NC(=O)CSc1nc2ncccc2[nH]1 property="growth inhibition" test_result=-4.5
compound=CCOC(=O)N1CCC(NC(=O)CS(=O)(=O)Cc2nc(-c3ccc(C)cc3)oc2C)CC1 property="growth inhibition" test_result=-20.3
compound=CC(=O)c1c(C)nn(C(=O)c2cccs2)c1C property="growth inhibition" test_result=1.07
compound=COC(=O)c1ccccc1Nc1cc(C)nc2nc(C)nn12 property="growth inhibition" test_result=-5.25
compound=O=C(CC(c1ccccc1)c1ccccc1)Nc1ncn[nH]1 property="growth inhibition" test_result=-5.6
compound=O=C(c1csc2c1CCCC2)N1CCCCC1 property="growth inhibition" test_result=12.4
compound=CCOC(=O)Cc1csc(NC(=O)c2c(-c3ccccc3)noc2C)n1 property="growth inhibition" test_result=-10.4
compound="CCOC1=NC(C(=O)O)c2ccccc2/C(=C(/C)Cl)N1 (stereo not drawn)" property="growth inhibition" test_result=-4.61
compound=Brc1ccc(-c2nnc(-c3ccccc3Br)o2)cc1 property="growth inhibition" test_result=0.385
compound=CCOc1ccc(CCNC(=O)c2nnc(Cc3ccc(F)cc3)o2)cc1OCC property="growth inhibition" test_result=-5.33

###

procedure_text: inhibitors of the yeast RAM network, pilot screen, dse1pr::URA3 reporter, 5-FOA selection (AID 869);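 further: 0% = DMSO wells with no growth and 100% = 10 µM 1-NA-PP1 with full growth; RAM network block rescues cells from 5-FOA so hits raise OD615 growth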
measurement_conditions: S. cerevisiae dse1pr::URA3 5-FOA growth, OD615, 2 d; at 10 µM; hits give high values; strain carries analog-sensitive mutant Cbk1 kinase
Active and inactive are the calls of the source.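 Rule for the calls: active = inhibition over a set limit, the all-compound mean plus 3 SD, in both replicate runs; inconclusive = over that limit in just one replicate run; inactive = at or under that limit in both runs.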
Recorded inhibition for the following compounds
property: inhibition

compound=CCOC(=O)c1cc2c(=O)n3ccccc3nc2n(C(C)C)c1=NC(=O)c1ccncc1 property=inhibition test_result="-0.45% (inactive)"
compound=Cc1cc(C)c(C#N)c(SCC(=O)c2cccs2)n1 property=inhibition test_result="1.6% (inactive)"
compound="CCC1Oc2ccc(C)cc2N(CC(=O)NCCc2ccc(OC)c(OC)c2)C1=O (stereo not given)" property=inhibition test_result="1.23% (inactive)"
compound=CCOc1ccccc1N(CC)C(=O)Cn1ncc2c(=O)oc3ccccc3c21 property=inhibition test_result="-0.255% (inactive)"
compound="CCn1ncc(C2=NOC(C(=O)Nc3c(C)n(C)n(-c4ccccc4)c3=O)C2)c1C (stereo not given)" property=inhibition test_result="0.855% (inactive)"

###

# viability annotations
procedure_text: growth suppression of PTEN-deleted HCT116, pilot screen, cell-based, HCT116 clonal line, CellTiter-Glo (AID 824);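 further: 0% = 20 µM Hyamine control and 100% = vehicle cell control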
measurement_conditions: 60 h, at 10 µM, hits give low values
Inconclusive results are not listed.
property: viability (%)

molecule="CC1CCCC(NC(=O)CSc2nnnn2C)C1C (configuration not stated)" test_result=101
molecule=Cc1cc(C)cc(N(CC(=O)Nc2c(C)n(C)n(-c3ccccc3)c2=O)S(C)(=O)=O)c1 test_result=93.2
molecule=C1CCc2c(nc3nnnn3c2N2CCOCC2)C1 test_result=98.4
molecule="CCOc1cc2c(cc1OCC)C(c1ccc(O)c(OC)c1)NCC2 (configuration not stated)" test_result=81.6
molecule=COc1ccc(-n2cnnc2)cc1 test_result=101
molecule=Cn1c(SCc2c(F)cccc2Cl)nnc1-c1cnccn1 test_result=93.8
molecule=O=C(O)CCCC(=O)Nc1ccccc1Br test_result=94.8
molecule="CCOc1ccc(N(C(C)C(=O)Nc2ccc(OC)cc2)S(C)(=O)=O)cc1 (configuration not stated)" test_result=90.2
molecule=Cc1ccc(-c2nnc(N3CCCCC3)c3ccccc23)cc1S(=O)(=O)N1CCN(C)CC1 test_result=60.2
molecule=Cc1ccc(CNC(=O)c2ccc(Br)o2)cc1 test_result=98.1
molecule="CCC(=O)N1C(C(=O)N2CCCC2)CSC1c1ccc(OC)cc1 (configuration not stated)" test_result=97.5
molecule=CCOC(=O)CNC(=O)CSc1nc2sc(C)c(C)c2c(=O)n1C test_result=97.6

###

procedure_text: viability gain of MRP-1-high H69AR cells under doxorubicin, pilot screen, MRP-1 activator project, CellTiter-Glo, duplicate (AID 807);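 further: compound pretreatment 18-22 h then 72 h combined with doxorubicin; 0% = doxorubicin alone and 100% = vehicle without doxorubicin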
measurement_conditions: H69AR viability with doxorubicin, CellTiter-Glo luminescence; at 10 µM; hits give high values
property: viability increase (%)

compound=CCOC(=O)N1CCC(N2Cc3cccc(C(=O)NCc4ccccn4)c3C2=O)CC1 test_result=-5.24
compound=CC(C)(Oc1ccc(Cl)cc1)C(=O)N1CCN(c2ccccn2)CC1 test_result=-2.47
compound=CC(=O)Nc1sc(N)nc1-c1ccccc1 test_result=0.94
compound=O=C(C1CCN(S(=O)(=O)c2cccc3cccnc23)CC1)N1CCN(Cc2ccccc2)CC1 test_result=0.23
compound=O=C(Cn1nc(-c2ccc(Cl)cc2)ccc1=O)NCCN1CCOCC1 test_result=-1.27
compound=CCN1CCN(Cc2ccc(NC(=O)Nc3ccccc3OC)cc2)CC1 test_result=0.28
compound=CCCn1c(CCC(=O)O)ccc1-c1cccs1 test_result=-2.75
compound=CCOC(=O)C1=C(Nc2cccc(Cl)c2)OCC1=O test_result=-1.85
compound="CC1CCc2nn(CC(=O)NCCCN3CCCC3=O)cc2C1 (stereo unspecified)" test_result=-1.1
compound=COc1ccc(Cc2nnc(-c3cccc(C)c3)o2)cc1OC test_result=1.15
compound=COc1ccc(OC)c2sc(NC(=O)c3ccc(Br)s3)nc12 test_result=-3.64

###

Let's look at some compounds and their measured growth inhibition.
procedure_text: OD615 S. cerevisiae growth inhibition, permissive medium, pilot counter-assay, permissive growth control for S. cerevisiae lifespan shortening project (AID 705)
measurement_conditions: OD615, 24 h, at 10 µM, hits give high values
property: growth inhibition (%)

compound="CCP(=O)(c1ccccc1)C(C)(C)O (stereo not drawn)" unit_info=% test_result=6.37
compound=Cn1c(=O)c2c(nc(NC3CCCCC3)n2Cc2ccccc2)n(C)c1=O unit_info=% test_result=-0.82
compound=CCOc1ccccc1NC(=O)CN1C(=O)COc2ccc(Cl)cc21 unit_info=% test_result=-16.8
compound=O=C(CSc1nnc2scc(-c3ccccc3)n12)c1ccc2c(c1)OCCO2 unit_info=% test_result=1.86
compound=COc1ccc(-c2cc(C(F)F)n3ncc(C(=O)NCCCN4CCCC4=O)c3n2)cc1 unit_info=% test_result=-3.45
compound=COc1ccc(CNc2ccc3cn[nH]c3c2)c(OC)c1OC unit_info=% test_result=-1.74
compound=CCOC(=O)c1cnn2c(C(F)(F)F)cc(-c3ccccc3)nc12 unit_info=% test_result=-6.86
compound="CCOC(=O)C1=C(C)NC2=C(C(=O)CCC2)C1c1cc(OC)ccc1OC (stereo not drawn)" unit_info=% test_result=-10.6
compound=O=C(c1ccc2snnc2c1)N1CCCC1 unit_info=% test_result=-11.3
compound="CCn1cc(C(=O)NCCCN2CC(C)CC(C)C2)c(=O)c2cc(S(=O)(=O)N(C)C)ccc21 (stereo not drawn)" unit_info=% test_result=-10.3
compound=O=C(Nc1sc2c(c1C(=O)O)CCCCC2)c1ccco1 unit_info=% test_result=-3.7
compound="Cc1oc(-c2ccc(Cl)cc2)nc1CN1CCCC(C(=O)NCCCN2CCCC2=O)C1 (stereo not drawn)" unit_info=% test_result=-14.7
compound="COc1ccc(C2/C(=C(/O)c3ccc(F)cc3)C(=O)C(=O)N2CCCN(C)C)cc1 (stereo not drawn)" unit_info=% test_result=-5.9
compound=COc1ccccc1NC=C1C(=O)OC(C)(C)OC1=O unit_info=% test_result=-17.5
compound=Cn1c(=O)oc2cc(S(=O)(=O)NCc3ccccn3)ccc21 unit_info=% test_result=-20.9
compound=COC(=O)c1ccccc1N(Cc1ccccc1)S(C)(=O)=O unit_info=% test_result=-3.77
compound=CCOc1cccc(C(=O)Nc2cccc(-c3nnc(-c4ccccc4)o3)c2)c1 unit_info=% test_result=-8.09
compound="CCCCCCN=CC1=C(O)C(C(=O)OC)C(C)(C)CC1=O (stereo not drawn)" unit_info=% test_result=-10.1
compound=COc1ccc(C(=O)Nc2cccc(C(C)=O)c2)cc1S(=O)(=O)N1CCOCC1 unit_info=% test_result=-23.9
compound=O=S(=O)(Cc1ccccc1)N1CCn2c(nc3ccccc32)C1 unit_info=% test_result=-14.1
compound=c1ccc2c(c1)nc1n2CCN1CCNC1CCCCC1 unit_info=% test_result=-11.4
compound=O=C(O)c1ccccc1C(=O)NCc1ccccc1 unit_info=% test_result=-7.18
compound=O=C(c1ccccc1)c1cccc(NC(=O)c2ccco2)c1 unit_info=% test_result=-8.52
